- TEST SYSTEM: cyno LAIR-1-Fc (cynomolgus monkey)
- Sequence (chain, as listed by the source limits assumed, form in doubt): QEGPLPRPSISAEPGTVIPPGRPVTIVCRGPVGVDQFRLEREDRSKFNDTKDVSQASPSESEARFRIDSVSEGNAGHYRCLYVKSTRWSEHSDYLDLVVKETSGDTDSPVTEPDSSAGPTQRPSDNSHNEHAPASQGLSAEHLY
- PROTOCOL TEXT: ELISA blocking: plate coated with 5 µg/mL human collagen type 1, antibody titrated, 1 µg/mL biotinylated cyno LAIR-1-Fc, streptavidin-HRP, OD650
REPORTED ENDPOINT: IC50 (read off the curve) (nM)
Express it in nM; write the number only.

QUERY: Recorded IC50 (read off the curve) for humanized anti-LAIR-1 antibody Hz62G10.v1 (antibody, human IgG1, kappa, N297G, V domains shown) VH: EVQLVESGGGLVKPGGSLRLSCAASGFTFNINAMNWVRQAPGKGLEWVARIRTKNNNFATYYADSVKDRFTISRDDSKNTLYLQMNSLKTEDTAVYYCVRGPYFDYWGQGTLVTVSS VL: DIQMTQSPSSLSASVGDRVTITCLASQTIGTWLAWYQQKPGKAPKLLIYAATSLADGVPSRFSGSGSGTDFTLTISSLQPEDFATYYCQQLYSTPYTFGGGTKVEIKR , please?
RESULT: 3

***
QUERY: Recorded IC50 (read off the curve) for anti-LAIR-1 antibody ch57D12 (antibody, V domains shown) VH: QVQLQQSGAELARPGASVNLSCRASGYSFTSFGISWVKQRTGQGLEWIGEIYPRSDNTFYNEKFKGKATLTADKSSSTAYMELRSLTSEDSAVYFCARHFGSSSFDYWGQGTTLTVSS VL: ENVLTQSPPIMAASLGQKVTMTCSASSSVSSIYFHWYQQKSGTSPKPLIHRASNLASGVPARFSGSGSGTSYSLTISSVEAEDDATYYCQQWSGYPLTFGGGTKLEIK , please?
RESULT: 6

QUERY: Try the binder anti-LAIR-1 antibody ch62G10 (antibody, V domains shown) VH: EVQLVETGGGLVQPKGSLKLSCATSGFTFNINAMNWVRQAPGKGLEWVARIRTKNNNFATYYADSVKDRFTISRDDSQSMLYLQMNNLKTEDTAMYYCVRGPYFDYWGQGTTLTVSS VL: DIQMTQSPASQSASLGESVTITCLASQTIGTWLAWYQQKPGKSPQLLIYAATSLADGVPSRFSGSGSGTKFSFKISNLQAEDFVTYYCQQLYSTPYTFGGGTKLEIK
RESULT: 3

QUERY: Try the binder humanized anti-LAIR-1 antibody Hz47H1.v4 (antibody, human IgG1, kappa, N297G, V domains shown) VH: EVQLVESGGGLVQPGGSLRLSCAASGFTFNINAMNWVRQAPGKGLEWVARIRTKNYNYATFYADSVKDRFTISRDDSKNSLYLQMNSLKTEDTAVYYCVRDRAGFFAYWGQGTTVTVSS VL: DIQMTQSPSSLSASVGDRVTITCLASQTIGTWLGWYQQKPGKAPKLLIYAATSLAEGVPSRFSGSGSGTDFTLTISSLQPEDFATYYCQQLYSTPLTFGGGTKVEIKR
RESULT: 3

QUERY: Try the binder anti-LAIR-1 antibody ch47H1 (antibody, V domains shown) VH: EVQLVETGGGLVQPKGSLKLSCAASGFTFNINAMNWVRQAPGKGLEWVARIRTKNNNYATFYADSVKDRFTISRDDSQSMLYLQMNNLKTDDTAMYYCVRDRAGFFAYWGQGTPVTVSA VL: DIQMTQSPASQSASLGESVTITCLASQTIGTWLGWYRQKPGKSPQLLIYAATSLADGVPSRFSGSGSGTKFSFKISSLQAEDFVIYYCQQLYSTPLTFGSGTKLEIK
RESULT: 3

Values from patent US20220041711A1
